test: Antibiotic blood levels in mice following intramuscular administration (paper disc-agar diffusion, Escherichia coli NIHJ as assay organism); type: in vivo; settings: mouse, im, I.M., 20 mg./kg., read-out: Blood level, Half-life
Listed next: entries and their corresponding half-life.
Give the value in h but do not write h after it.

Here's what some known entries look like.
O=C([O-])C1=C(C[n+]2ccc(C(=O)O)cc2)CSC2C(NC(=O)[C@H](NC(=O)c3cnc4cccnc4c3O)c3ccc(O)cc3)C(=O)N12 (stereo partly shown) [BB-S584]	1.35
O=C([O-])C1=C(C[n+]2ccccc2C(=O)O)CSC2C(NC(=O)[C@H](NC(=O)c3cnc4cccnc4c3O)c3ccc(O)cc3)C(=O)N12 (stereo partly shown) [BB-S585]	1
O=C(O)Cc1cc[n+](CC2=C(C(=O)[O-])N3C(=O)C(NC(=O)[C@H](NC(=O)c4cnc5cccnc5c4O)c4ccc(O)cc4)C3SC2)cc1 (stereo partly shown) [BB-S591]	0.9

From here, focus on the item given below.
Query block: Fill blank: measured half-life of the molecule O=C(O)C=Cc1ccc[n+](CC2=C(C(=O)[O-])N3C(=O)C(NC(=O)[C@H](NC(=O)c4cnc5cccnc5c4O)c4ccc(O)c(O)c4)C3SC2)c1 (stereo partly shown) [BB-S610] is ____.
Result block: 1

----------
test system: Ent. cloacae (3), Pr. vulgaris (1), Pr. morganii (1), S. marcescen (1); assay: In vitro MIC, serial two-fold agar dilution, primary evaluation Gn-II (Ent. cloacae, Pr. vulgaris, Pr. morganii, S. marcescens); type: cell-based; conditions: CBPC = 100%; geometric mean of MICs; Mueller-Hinton agar
RECORDED_ENDPOINT: In vitro relative activity, primary evaluation Gn-II (6) (%)
Give the value in % but do not write % after it.

Here's what some known entries look like.
O=C([O-])C1=C(C[n+]2ccc(CCS(=O)(=O)O)cc2)CSC2C(NC(=O)[C@H](NC(=O)c3cnc4cccnc4c3O)c3ccc(O)c(Cl)c3)C(=O)N12 (stereo partly drawn)	40
O=C(O)C=Cc1ccc[n+](CC2=C(C(=O)[O-])N3C(=O)C(NC(=O)[C@H](NC(=O)c4cnc5cccnc5c4O)c4ccc(O)c(Cl)c4)C3SC2)c1 (stereo partly drawn)	63
O=C(O)C=Cc1ccc[n+](CC2=C(C(=O)[O-])N3C(=O)C(NC(=O)[C@H](NC(=O)c4cnc5cccnc5c4O)c4ccsc4)C3SC2)c1 (stereo partly drawn)	11

Query block: Fill blank: measured In vitro relative activity, primary evaluation Gn-II (6) of the compound O=C([O-])C1=C(C[n+]2cccc(S(=O)(=O)O)c2)CSC2C(NC(=O)[C@H](NC(=O)c3cnc4cccnc4c3O)c3ccc(O)c(O)c3)C(=O)N12 (stereo partly drawn) is ____.
Result block: 11

Query block: Fill blank: measured In vitro relative activity, primary evaluation Gn-II (6) of the compound O=C(O)CSc1ccc[n+](CC2=C(C(=O)[O-])N3C(=O)C(NC(=O)[C@H](NC(=O)c4cnc5cccnc5c4O)c4ccc(O)c(O)c4)C3SC2)c1 (stereo partly drawn) is ____.
Result block: 8

Query block: Fill blank: measured In vitro relative activity, primary evaluation Gn-II (6) of the compound NC(=O)c1cc[n+](CC2=C(C(=O)[O-])N3C(=O)C(NC(=O)[C@H](NC(=O)c4cnc5cccnc5c4O)c4ccc(O)cc4)C3SC2)cc1C(=O)O (stereo partly drawn) is ____.
Result block: 11
